Hello, the source for this data is patent US20260263521A1, in case you need it.

- assay-system: T1, human CD200R1 (Homo sapiens, UniProt Q8TD46)
- T1 sequence (Q8TD46 25-348): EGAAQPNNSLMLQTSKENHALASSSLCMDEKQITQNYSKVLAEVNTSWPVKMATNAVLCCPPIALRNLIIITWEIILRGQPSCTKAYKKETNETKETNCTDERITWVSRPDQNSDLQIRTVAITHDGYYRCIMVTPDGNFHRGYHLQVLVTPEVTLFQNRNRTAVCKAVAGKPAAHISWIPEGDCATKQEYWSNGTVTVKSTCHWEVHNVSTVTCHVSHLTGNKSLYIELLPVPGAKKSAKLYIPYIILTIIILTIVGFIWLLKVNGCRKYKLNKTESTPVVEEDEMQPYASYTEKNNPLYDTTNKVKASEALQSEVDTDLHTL
- assay-info: SPR binding kinetics, human CD200R1
- condition-summary: hCD200R1-his captured on anti-His CM5 chip, 1:1 Langmuir fit
recorded-endpoint: Ka
Remember to quote the unit after the number.

# input molecule: P001009v2: P001009 variant, LC S52 and LC D93 substituted with K and R; VH SEQ ID NO: 79 (antibody, V domains shown) VH: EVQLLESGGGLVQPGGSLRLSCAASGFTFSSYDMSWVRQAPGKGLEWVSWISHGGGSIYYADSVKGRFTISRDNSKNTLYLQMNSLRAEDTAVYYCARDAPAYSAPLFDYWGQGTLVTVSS VL: QSVLTQPPSASGTPGQRVTISCSGSSSNIGNNAVNWYQQLPGTAPKLLIYYDKNRPSGVPDRFSGSKSGTSASLAISGLRSEDEADYYCAAWDRSLSGYVFGGGTKLTVL ; wanted: its Ka
7.52e+06 M⁻¹ s⁻¹
